test: COS7 lysate on small-molecule microarray, probe aHis, 635 nm (AID 1123); conditions: COS7 cell lysate, fluorescence, higher = more signal;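 note: z-score combines 667nm fluorescence intensity with signal-to-noise per printed compound spot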
composite z-score values for the compounds below.
Field format: numeric only.

Recorded composite z-score, per entry:
>>> recorded_result("[N-]=[N+]=NCc1ccccc1C[C@@]1(C(=O)O)N=C(c2ccc(OCCCO)cc2)O[C@@H]1c1ccccc1")
1.53
>>> recorded_result("COCCOC(=O)N1C(=O)[C@@]2(c3cc(C#CCNC(N)=O)ccc31)[C@H](c1ccccc1OCCO)N1[C@H](c3ccccc3)[C@H](c3ccccc3)OC(=O)[C@H]1[C@@H]2C(=O)Nc1nc2ccccc2s1")
0.862

## Input Return reported composite z-score; argument: COc1ccc([Si](C)(C)[C@H]2[C@H](CC(=O)N(CCO)Cc3ccccc3)O[C@@]3(C(=O)N(Cc4cccc(N5C(=O)COc6ccccc65)c4)c4ccccc43)[C@@H]2C)cc1
## Output 1.69

## Input Consider the compound shown here: C=CCC(OC(C)=O)[C@@H]1[C@@H](N(Cc2ccc(-c3ccccc3)cc2)C(=O)c2ccc(-c3ccccc3)cc2)c2cc(OCCCO)ccc2N1C(=O)c1ccc(-c2ccccc2)cc1 (stereo partly specified) What is its recorded composite z-score?
## Output 0.57

## Input Would you kindly share the measured composite z-score for C=C(/C(=C/C[C@H](OC(C)=O)c1cccc(OCCO)c1)c1cc(C(=O)OC)ccc1OC)C(C)C ?
## Output 0.866

## Input Reported composite z-score, compound C=C(COC)/C(=C/C[C@H](OC(C)=O)c1cccc(OCCO)c1)c1cc(C(=O)OC)ccc1OC : ____
## Output 0.193

====

target: NADPH oxidase 2 (Homo sapiens) (UniProt P04839); assay: NOX2-dependent H2O2 signal modulators, primary screen, NOX inhibitor project, cell-based, HEK293-NOX2, PMA-stimulated, Amplex Red fluorescence (AID 1159); settings: 45 min, higher = more signal, called active from +8 up or from −8 down; note: test concentration not given here
Sequence (P04839 whole entry, looked up): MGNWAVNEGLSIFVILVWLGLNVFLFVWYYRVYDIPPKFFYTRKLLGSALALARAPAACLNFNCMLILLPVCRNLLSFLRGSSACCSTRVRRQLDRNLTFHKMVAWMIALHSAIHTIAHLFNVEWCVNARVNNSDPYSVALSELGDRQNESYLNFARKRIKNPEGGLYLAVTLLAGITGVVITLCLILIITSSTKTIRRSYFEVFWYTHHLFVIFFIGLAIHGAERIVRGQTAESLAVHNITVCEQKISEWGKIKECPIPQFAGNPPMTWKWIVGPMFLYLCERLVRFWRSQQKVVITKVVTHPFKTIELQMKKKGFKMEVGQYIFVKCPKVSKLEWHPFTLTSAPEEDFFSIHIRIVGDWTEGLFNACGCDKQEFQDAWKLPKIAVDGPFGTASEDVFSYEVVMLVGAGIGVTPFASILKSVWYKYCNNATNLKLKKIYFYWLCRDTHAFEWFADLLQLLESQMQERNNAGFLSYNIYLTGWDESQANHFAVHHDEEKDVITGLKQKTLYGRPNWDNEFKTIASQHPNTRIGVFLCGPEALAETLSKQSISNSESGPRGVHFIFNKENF
QUANTITY KIND: z-score
Give the figure only, with no unit attached.

Consider the worked cases shown below.
>>> recorded_result("NC(=O)N1C(=O)C2C(C1=O)C1C=C(c3ccc(CO)cc3)C2C(C2CC2)N1Cc1cc2c(cc1Br)OCO2 (configuration not stated)")
2.92
>>> recorded_result("COCCOC(=O)N1C(=O)[C@@]2(c3ccccc31)[C@H](C(=O)Nc1nc3ccccc3s1)[C@H]1C(=O)O[C@H](c3ccccc3)[C@H](c3ccccc3)N1[C@@H]2c1ccc(O)cc1")
-0.333
>>> recorded_result("O=C(O)[C@H]1C[C@H]2C(=O)N[C@@H](Cc3ccccc3)C(=O)N2[C@H]1c1ccc(O)cc1")
1.53

Lab note: next compound to report on.
## Input I am curious: what z-score value has been reported for Cc1ccc(N2C(=O)c3ccccc3[C@](C)(C(=O)NC3CC3)[C@@H]2c2ccc(CO)cc2)nc1 ?
## Output -0.712

====

biological target: NADPH oxidase 2 (Homo sapiens) (UniProt P04839); experiment: NOX2-dependent H2O2 signal modulators, primary screen, NOX inhibitor project, cell-based, HEK293-NOX2, PMA-stimulated, Amplex Red fluorescence (AID 1159); details: 45 min, higher = more signal, called active from +8 up or from −8 down; note: test concentration not given here
Outcome: Met for z-score of at least 2; Not met for anything lower.

Solved entries:
>>> category_label("C=C(COC)/C(=C/C[C@H](OC(C)=O)c1ccc(CO)o1)c1cnc2ccccc2c1")
"Met"
>>> category_label("C[N+](C)(C)CCCC[C@@H]1NC(=O)[C@@H]2C[C@H](C(=O)NCCCCCNC(=O)CS)[C@H](c3ccc(O)cc3)N2C1=O")
"Not met"
>>> category_label("C=CCN1C(=O)[C@]2(O[C@H](CCn3cc([C@H](O)c4ccccc4)nn3)[C@@H]([Si](C)(C)c3ccc(OC)cc3)[C@@H]2C)c2cc(N3CCOC3=O)ccc21")
"Not met"
>>> category_label("NCCCCCCNC(=O)[C@@H]1C[C@@H]2C(=O)N[C@@H](Cc3ccccc3)C(=O)N2[C@@H]1c1ccc(O)cc1")
"Not met"
>>> category_label("COCCOC(=O)N1C(=O)[C@@]2(c3cc(C#CC4(O)CCCCCC4)ccc31)[C@H](C(=O)NC[C@H](O)c1ccccc1)[C@H]1C(=O)O[C@H](c3ccccc3)[C@H](c3ccccc3)N1[C@@H]2c1ccccc1OCCO")
"Not met"

As a next step, examine the compound that follows.
## Input Hello, I need to know if CC(C)C[C@@H]1NC(=O)[C@@H]2C[C@H](C(=O)NCCCCCNC(=O)CS)[C@H](c3cccc(OCCO)c3)N2C1=O has measured z-score not below 2. Thanks!
## Output Met
